Origin of measurements: patent US20180186897A1

Biological target: erythrocytes infected with P. falciparum field isolate 9215
Test: flow cytometry, staining of IEs
MEASUREMENT LABEL: % parasite recognition (%)

BINDER	UNIT INFO	MEASUREMENT
MGD30 (antibody) VH: QVQLQESGPGLVKPSETLSLSCAVTGGSITSSKWWTWVRQGPDKGLEWIGKIYHNGTTNYNPSLKSRVAMSVDKSRNQFSLRLTSVTAADTALYYCATASPFKSHHRTTEKLPRPSISAEPGTVIPLGSRVTFVCRGPVGVQTFRLERETSFTYNDTEDVSQVSPSESEARFRIDSVSEGYAGPYRCVYYKAPKWSEQSDYLDLLVKGEDVTWALTQPQLDPRACPQGDLRMSTDIYCMDVWGKGTTVTVSS VL: AIRLTQSPSSLSASIGDRVTITCRASQDISTFLAWYQQESGKAPRLLIFAASTLQTGVPSRFSGSGSGTDFTLTISGLQSEDFATYYCQQYYCFPPDFGQGTRLDIK	%	9
MGC34 (antibody) VH: EVQLVESGGGLVQPGGSLRLSCEASGFTFSSYWMSWVRQAPGKGLEWVANINQDGSQKDYVDSVKGRFTISRDTAKNSLYLQMNSLRAEDTAVYYCARERLCTDDSHMHGEEDLPRPSISAEPGTVIPLGSHVTFVCRGPVGIHTFRLERESRSLYTETEDVTQVSPSESEARFRIESVTEGNAGLYRCVYYKPPKWSEQSDYLELLVKGEDVTRALFTHCGGDGKESDYHMDVWGKGTTVTVSS VL: QTVVTQEPSLTVSPGGTVTLTCASSTGAVTSGYYPSWFHQKPGQPVRALIYSTSKTHSWTPARFSGSLLGGKAALTLSNVQPEDEADYYCLLYYGGPQPWVFGGGTKLTVQ	%	27.1
